The reported numbers originate from patent US20060089375A1.

target: PDE4B (human recombinant) (Homo sapiens); construct: made in house; experiment: Inhibition of PDE4B activity: radioactive SPA or IMAP Fluorescence Polarisation (FP) assay; format: biochemical; settings: PDE4B inhibitory activity, one reading or average of ca. 2-6 readings, read-out: PDE4B pIC50 (± about 0.5) (converted)
Sequence (Q07343 1-564 isoform Q07343-2): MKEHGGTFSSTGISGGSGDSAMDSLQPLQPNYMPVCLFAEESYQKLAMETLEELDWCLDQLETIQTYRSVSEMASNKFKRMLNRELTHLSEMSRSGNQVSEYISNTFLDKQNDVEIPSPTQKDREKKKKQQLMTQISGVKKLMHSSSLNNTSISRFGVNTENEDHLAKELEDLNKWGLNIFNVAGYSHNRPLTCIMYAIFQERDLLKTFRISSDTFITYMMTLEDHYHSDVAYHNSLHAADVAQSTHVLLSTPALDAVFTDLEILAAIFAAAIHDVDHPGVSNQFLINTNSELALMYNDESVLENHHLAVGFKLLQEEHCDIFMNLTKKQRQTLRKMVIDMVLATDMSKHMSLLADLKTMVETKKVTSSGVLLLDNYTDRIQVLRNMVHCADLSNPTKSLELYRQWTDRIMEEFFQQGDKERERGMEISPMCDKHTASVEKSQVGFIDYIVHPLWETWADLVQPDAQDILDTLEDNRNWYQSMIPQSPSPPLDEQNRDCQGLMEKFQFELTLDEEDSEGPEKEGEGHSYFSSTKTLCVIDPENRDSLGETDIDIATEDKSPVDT
Endpoint Label: IC50

Study these solved cases before continuing.
CCCn1ncc2c(NC3CCOCC3)c(C(=O)NCc3ccc(S(C)(=O)=O)cc3)cnc21 12.6 to 100 nM
CCn1ncc2c(NC3CCOCC3)c(C(=O)NCc3ccccc3I)cnc21 0.1 to 6.31 nM
CCc1ccccc1CNC(=O)c1cnc2c(cnn2CC)c1NC1CCOCC1 0.1 to 6.31 nM

Retrieve IC50 on PDE4B (human recombinant) (Homo sapiens); query CCn1ncc2c(NC3CCC(=O)CC3)c(C(=O)NCc3ccc(OC(F)F)cc3)cnc21
0.1 to 6.31 nM
